measurement_name: melting point

{"molecule": "NC(=O)c1nc(-c2ccc(=O)[nH]c2)c(-c2ccccc2)nc1N", "experimental_value": "215 to 220 °C"}
{"molecule": "Brc1ccccc1-n1cnc2cnc3ccc(-c4ccccc4)cc3c21", "experimental_value": "128 to 129 °C"}
{"molecule": "CCc1cccc(C(O)CC)c1NC(=O)CC1c2ccccc2Oc2ccccc21 (centres undefined)", "experimental_value": "167 to 168 °C"}
{"molecule": "Cc1nn(-c2c(Cl)cc(C(F)(F)F)cc2Cl)nc1SC#N", "experimental_value": "115 to 117 °C"}
{"molecule": "CC(C)(C)NCC(O)c1cc(F)cc(C#N)c1F (centres undefined)", "experimental_value": "99 to 101 °C"}
{"molecule": "O=C(NCC1CCN(C(=O)OCc2ccccc2)CC1)c1ccc(O)cc1", "experimental_value": "122 to 123 °C"}
{"molecule": "c1ccc2c(=Nc3ccncc3)cc3oc4cc(N5CCOCC5)ccc4nc-3c2c1", "experimental_value": "> 300 °C"}
{"molecule": "O=C1NC2CC3CC(C2)CC1C3", "experimental_value": "> 270 °C"}
{"molecule": "NS(=O)(=O)c1cc(C2OCCO2)cs1", "experimental_value": "225 to 227 °C"}
{"molecule": "CNC(=S)NS(=O)(=O)c1cc(CCNC(=O)/C=C/c2ccccn2)ccc1OC", "experimental_value": "188 °C"}
{"molecule": "COC1CSC2=C(SC1)C(OC(=O)N1CCN(C(=O)C(C)C)CC1)N(c1ccc3ccc(Cl)nc3n1)C2=O (centres undefined)", "experimental_value": "232 °C"}
{"molecule": "O=C1Nc2ccc(Cl)cc2C1(NCCc1ccccn1)c1ccccc1Cl (centres undefined)", "experimental_value": "178 °C"}
{"molecule": "CC(=O)NC(Cc1csc2ccccc12)C(CCc1cc(C(F)(F)F)cc(C(F)(F)F)c1)=NO (centres undefined)", "experimental_value": "200 to 201 °C"}
{"molecule": "CC(=O)Nc1ccccc1C(=O)C=Cc1ccncc1", "experimental_value": "130 °C"}
